Cited source for all entries: patent US9586961B2

# EC50 values compiled below
molecular target: TYK2 (Homo sapiens, UniProt P29597); construct: JAK1 (aa 850-1154) and TYK2 (aa 871-1187) are expressed with an N-terminally fused GST-tag; GST (N); experiment: TYK2 kinase assay (HTRF, inhibition of phosphorylation of a synthetic peptide); details: catalytic domain aa 871-1187, GST-tag; 13 μM ATP (Km); read-out: TYK2 kinase inhibitory activity (EC50)
Sequence (P29597 871-1187): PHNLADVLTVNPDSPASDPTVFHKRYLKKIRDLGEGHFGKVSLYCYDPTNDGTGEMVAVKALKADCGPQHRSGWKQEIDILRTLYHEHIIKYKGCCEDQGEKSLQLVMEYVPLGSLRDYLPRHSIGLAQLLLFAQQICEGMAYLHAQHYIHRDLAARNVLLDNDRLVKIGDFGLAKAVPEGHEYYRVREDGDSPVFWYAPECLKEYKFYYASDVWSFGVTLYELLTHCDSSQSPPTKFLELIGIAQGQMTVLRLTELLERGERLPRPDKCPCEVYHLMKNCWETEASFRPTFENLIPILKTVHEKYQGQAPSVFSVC

Observe how each entry below is paired with its result.
{"molecular.string": "CN(CCC#N)S(=O)(=O)N1CCN(c2ncnc3[nH]ccc23)CC2(CC2)C1", "observed.result": "> 1 µM"}
{"molecular.string": "Cc1cc(S(N)(=O)=O)ccc1C(=O)N1CCN(c2ncnc3[nH]ccc23)CC2(CC2)C1", "observed.result": "> 1 µM"}
{"molecular.string": "Nc1nc(N2CCN(Cc3ccccc3)CC3(CC3)C2)c2cc[nH]c2n1", "observed.result": "> 1 µM"}

# evaluate next
Exercise: For `N#Cc1csc(C(=O)N2CCN(c3ncnc4[nH]ccc34)CC3(CC3)C2)c1` , write its EC50.
Key: > 1 µM
